B1: CPEB3 Ribozyme (parent)
chain: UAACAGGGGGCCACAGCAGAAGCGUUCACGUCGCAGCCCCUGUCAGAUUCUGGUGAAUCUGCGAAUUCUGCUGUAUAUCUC

Variants of: B1
TEST METHOD NOTES: self-cleavage, relative activity (ratio to wild type); higher = more cleavage; in vitro, sequencing
Outcome: 1 for self-cleavage of at least 0.3; -1 for anything lower.

Task: Given the entry A35G A65C , answer whether its self-cleavage meets or surpasses 0.3.
Output: 1

Task: Proceed to U26A G30U
Output: -1

Task: Now consider A3G C79U and answer again.
Output: 1

Task: Also C14A U51C ?
Output: 1

Task: Also need A56G C62A , thanks.
Output: -1

Task: // repeat for A3G G70A and report
Output: 1

Task: Please do the same for A18U A28G as well.
Output: -1

Task: Field entry: C39U U48C
Output: 1

Task: Entry to check: G10C U66A
Output: -1

Task: Record: A20U U43C
Output: -1

Task: Quick one: A18G G52A
Output: 1

Task: Also need G6A C79A , thanks.
Output: 1

Task: And the next one, C17U U72G ?
Output: 1

Task: Same read-out for G6A C23U ?
Output: -1

Task: Next up: C27G U80A
Output: -1

Task: // same read-out, input: A21C U51A
Output: -1

Task: Try this variant next: A56G C81U
Output: 1

Task: Please answer likewise for G6A C23G
Output: 1

Task: Same thing, different variant: A18G U54A
Output: 1

Task: Try this variant next: A15G A47U
Output: 1

Task: And then A15G A57U , what is it?
Output: 1

Task: // repeat for A13G A35C and report
Output: 1

Task: Repeat for the following variant: C29G G30A
Output: -1

Task: What about A5G A35C ?
Output: 1

Task: Moving on to the next variant: G10A A20C
Output: -1

Task: And then U43A , what is it?
Output: 1

Task: Another variant to look at: G9A A18U
Output: -1

Task: Next entry: A47G U49A
Output: 1

Task: Further, for G19U C44U ?
Output: -1

Task: Same question, C17U U41C this time
Output: 1

Task: Then what about the variant A35U U60C ?
Output: -1

Task: Next: G46C U78C
Output: -1

Task: What about C40U C79G ?
Output: 1

Task: Now consider A13C A65G .
Output: 1

Task: Continue with G7A A20C
Output: -1

Task: Try the variant U76G C81A
Output: 1

Task: What do we get for G9U C29U ?
Output: -1

Task: // query: A5C A15U
Output: 1

Task: Then A56U U72G ?
Output: 1

Task: What do you have for C23U A47U ?
Output: -1

Task: Same read-out for G8A C39A ?
Output: -1

Task: Also, U41A U72C please.
Output: -1

Task: Would you mind doing U25C G36U as well?
Output: -1

Task: Also A13G A35U , if possible.
Output: 1

Task: Next variant up: G10A
Output: -1

Task: Now the same for A18C U49C
Output: -1

Task: Similarly, A45G C59A ?
Output: 1

Task: Same again, this time with U60A U66A
Output: -1

Task: Also G30A U72C , if possible.
Output: 1

Task: Now the variant C12U A64G
Output: 1

Task: Also need A18G U51C , thanks.
Output: 1

Task: How about A5G U74C ?
Output: 1

Task: Next variant: U49A A65U
Output: 1

Task: How about this variant: G8A A57G
Output: -1

Task: Continue with A5G C40A
Output: -1

Task: Also C14A U54A ?
Output: 1

Task: Now give it for A28G U69C too.
Output: -1

Task: For U43A U80C then?
Output: 1

Task: Proceed to C27A C50U
Output: -1

Task: Subsequent entry: A18G G70C
Output: -1

Task: Now the variant A2G A15G
Output: 1

Task: Repeat with G52A U69G
Output: 1

Task: Try this variant next: A28U G36U
Output: 1

Task: And the next one, U1A C12G ?
Output: 1

Task: Ok, now U60C G63A
Output: 1

Task: Can you handle G63A next?
Output: 1

Task: And C23A C62U ?
Output: -1

Task: # repeat for A21G C71A
Output: -1

Task: Likewise for A56U G63A ?
Output: 1

Task: Param item: U41C U80G
Output: 1

Task: Entry A35C G55U please
Output: 1

Task: Likewise for G24C U67C ?
Output: -1

Task: Next record, please: C40G U48A
Output: 1

Task: Also check U54A U74G
Output: 1

Task: Okay, and A28C G63U ?
Output: 1

Task: Moving on to C39A U41A
Output: -1

Task: # repeat for C62U U67C
Output: 1

Task: # iterate: A3G U41C
Output: 1

Task: // same read-out, input: A28U C62A
Output: 1

Task: How about U48G U67A ?
Output: 1

Task: How about A64G A77U ?
Output: 1
